tested on: T1, recombinant human CD123-Fc (human, UniProt P26951 19-305)
T1 construct: not shown: Fc part of CD123-Fc
T1 sequence: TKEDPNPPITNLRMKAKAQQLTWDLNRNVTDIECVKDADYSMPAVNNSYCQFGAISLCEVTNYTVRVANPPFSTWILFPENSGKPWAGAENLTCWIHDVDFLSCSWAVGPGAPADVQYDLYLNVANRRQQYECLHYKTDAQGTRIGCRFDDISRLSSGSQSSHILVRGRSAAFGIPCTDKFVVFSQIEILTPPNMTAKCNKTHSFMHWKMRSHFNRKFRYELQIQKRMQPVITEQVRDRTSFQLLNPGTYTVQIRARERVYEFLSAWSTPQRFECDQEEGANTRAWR
assay name: phage ELISA, captured CD123-Fc
Hi, to clarify the labels: 1 covers ELISA_avg from 5 ratio A450 target/IgG1-Fc upward, 0 covers anything below 5 ratio A450 target/IgG1-Fc.

Exercise: Identify whether the reported ELISA_avg of the following binder is 5 ratio A450 target/IgG1-Fc or greater: SEQ ID NO: 575 (designed binder, D domain, on phage) MGSWLEFESRLWAIWDRLDALGGSEAELAHFEQDIADFEMSLQEYKGKGNPEVEALIREAEAIETELYAYRHN
Key: 0

Exercise: Identify whether the reported ELISA_avg of the following binder is 5 ratio A450 target/IgG1-Fc or greater: SEQ ID NO: 394 (designed binder, D domain, on phage) MGSWWEFENRLWAIEERLEALGGSEAELAAFEKEIAAFESELQAYKGKGNPEVEMLRNYAAEIRWELQAYRHN
Key: 1

Exercise: Identify whether the reported ELISA_avg of the following binder is 5 ratio A450 target/IgG1-Fc or greater: SEQ ID NO: 481 (designed binder, D domain, on phage) MGSWNEFKDDLAMIKMTLEALGGSEAELAWFEHDIAEFEDDLQWYKGKGNPEVEALRKEAAAIRDELQAYRHN
Key: 0

Exercise: Identify whether the reported ELISA_avg of the following binder is 5 ratio A450 target/IgG1-Fc or greater: SEQ ID NO: 601 (designed binder, D domain, on phage) MGSWFEFGDRLEAIDERLYALGGSEAELAQFEWWIAEFEHHLQDYKGKGNPEVEALEYEADAIWGELHAYRHN
Key: 0
